Value source: patent US8663616B2

Experiment: M. smegmatis aryl esterase constructs, peracetic acid when bound to hydroxyapatite particles (Example 10)
Format: biochemical
Settings: 33 mg HAP particles exposed to 10 μM enzyme; 100 mM triacetin, 100 mM H2O2, 30 min, 37° C.; no enzyme 323
experimental.endpoint: Peracetic acid (ppm) On Hydroxyapatite
Write the number in ppm without appending the unit.

Reported Peracetic acid (ppm) On Hydroxyapatite of EZ-39: ArE-link1-(GK)5-H6, SEQ ID NO: 463 (protein) MAKRILCFGDSLTWGWVPVEDGAPTERFAPDVRWTGVLAQQLGADFEVIEEGLVARTTNIDDPTDPRLNGASYLPSCLATHLPLDLVIIMLGTNDTKAYFRRTPLDIALGMSVLVTQVLTSAGGVGTTYPAPKVLVVSPPPLAPMPHPWFQLIFEGGEQKTTELARVYSALASFMKVPFFDAGSVISTDGVDGIHFTEANNRDLGVALAEQVRSLLGPGSGGAGSPGSAGGPGSGKGKGKGKGKHHHHHH : 3553
